Measured values drawn from PubChem BioAssay AID256 for this set.

Hi there, I'd appreciate the recorded T/C for every entry that follows.
- Tested on: CD2F1 mice, L1210 leukemia ip, survival T/C
- procedure_text: NCI In Vivo Anticancer Drug Screen. Data for tumor model L1210 Leukemia (intraperitoneal) in CD2F1 (CDF1) mice
- recorded_conditions: endpoint: mean survival time; dose: 400.0 mg/kg/injection; schedule: Q04DX003 (ip); vehicle: saline with Tween-80; higher = longer survival
Inconclusive results and toxic doses are left out.

The reported CD2F1 mice, L1210 leukemia ip, survival T/C T/C of COc1ccc(NC(=O)Nc2ccccc2F)cc1 is 95 % of control

The reported CD2F1 mice, L1210 leukemia ip, survival T/C T/C of CCC1CCCCC1(O)CC (stereo unspecified) is 103 % of control

The reported CD2F1 mice, L1210 leukemia ip, survival T/C T/C of COc1ccc(CC2c3cc(OC)c(OC)cc3CCN2C(C)=O)cc1 (stereo unspecified) is 100 % of control

The reported CD2F1 mice, L1210 leukemia ip, survival T/C T/C of CCOC1=NN(c2ccccc2)C(=O)C1 is 103 % of control

The reported CD2F1 mice, L1210 leukemia ip, survival T/C T/C of S=C1NCCO1 is 104 % of control

The reported CD2F1 mice, L1210 leukemia ip, survival T/C T/C of O=C(Nc1cc(Cl)ccc1Cl)c1ccc(C(=O)Nc2cc(Cl)ccc2Cl)cc1 is 88 % of control

* * *

- Test system: CD2F1 mice, L1210 leukemia ip, survival T/C
- procedure_text: NCI In Vivo Anticancer Drug Screen. Data for tumor model L1210 Leukemia (intraperitoneal) in CD2F1 (CDF1) mice
- recorded_conditions: endpoint: mean survival time; dose: 100.0 mg/kg/injection; schedule: Q01DX009 (ip); vehicle: saline with Tween-80; higher = longer survival
- Procedure: The antitumor activity of compounds was measured in mice bearing transplantable tumors. Survival or tumor size were measured and the results are expressed as the measurement made in the treated group (T) divided by the measurement made in the vehicle treated control group (C). The tumor model used in this assay is L1210 Leukemia (intraperitoneal) in CD2F1 (CDF1) mice
Inconclusive results and toxic doses are left out.
Hi there, I'd appreciate the recorded T/C for every entry that follows.

Memo: O/N=C1/C2CCC(C2)C1C(O)(C(F)(F)F)C(F)(F)F (stereo not given) , reported T/C: 101 % of control

Memo: Cc1ccc(-n2c(=S)[nH]c3ccccc3c2=O)cc1F , reported T/C: 88 % of control

Memo: O=C(O)c1cnc2cc(Cl)ccc2n1 , reported T/C: 103 % of control

Memo: CCOC(=O)c1c[nH]c2ccc([N+](=O)[O-])cc2c1=O , reported T/C: 97 % of control

Memo: CCC1(CC)C(=O)C=CNC1=O , reported T/C: 94 % of control

Memo: CCOC(=O)/C(C#N)=C\c1cc(OC)ccc1OC , reported T/C: 104 % of control

Memo: O=C1CCC(OC(=O)c2ccccc2)CCN1 (stereo not given) , reported T/C: 87 % of control

Memo: CCc1ccc(OS(=O)(=O)c2cccc([N+](=O)[O-])c2)cc1 , reported T/C: 98 % of control

Memo: Cc1cc(C)c(C)c(S(=O)(=O)O)c1C , reported T/C: 102 % of control

Memo: CN1CCC(COC(=O)C(O)(c2ccccc2)c2ccccc2)C1 (stereo not given) , reported T/C: 94 % of control

Memo: O/N=C1/CCCc2ccccc21 , reported T/C: 98 % of control

Memo: Clc1ccc(CCc2ccc(Cl)cc2)cc1 , reported T/C: 98 % of control

Memo: c1ccc2c(c1)c1ccccc1n2CCCCn1c2ccccc2c2ccccc21 , reported T/C: 97 % of control

Memo: CCc1ccccc1NC(=O)/C=C/C(=O)O , reported T/C: 102 % of control

Memo: COc1cccc(OC)c1C1=CCCCCC1 , reported T/C: 101 % of control

Memo: COc1ccc(C(C)c2ccccc2)cc1 (stereo not given) , reported T/C: 97 % of control

Memo: OC1CCC(O)C2C3CCC(C3)C12 (stereo not given) , reported T/C: 98 % of control

Memo: CCCCCCCCC(=O)N1CCOCC1 , reported T/C: 108 % of control

Memo: CC1(C)OC1CS(=O)c1ccccc1 (stereo not given) , reported T/C: 95 % of control

Memo: c1ccc(C2=NC3CCCCC3N=C2c2ccccc2)cc1 (stereo not given) , reported T/C: 109 % of control

Memo: CS(=O)(=O)c1nc2ccccc2s1 , reported T/C: 103 % of control

Memo: Cc1cc(CO)c(O)c(CO)c1 , reported T/C: 91 % of control

Memo: Nc1ccc(-c2ccc(N)c([N+](=O)[O-])c2)cc1[N+](=O)[O-] , reported T/C: 98 % of control

Memo: CC1=NN(c2ccccc2)C(=O)C1N=Nc1ccc([As](=O)(O)O)c(O)c1 (stereo not given) , reported T/C: 103 % of control

Memo: Cc1ccc2nc(-c3ccc4nc(-c5ccc(N)cc5)sc4c3)sc2c1 , reported T/C: 97 % of control

Memo: C[Si](C)c1cccc(Cl)c1 , reported T/C: 104 % of control

Memo: CCOC(=O)Oc1c(OC)cc(C(=O)O[C@@H]2C[C@@H]3CN4CCc5c([nH]c6cc(OC)ccc56)[C@H]4C[C@@H]3[C@H](C(=O)OC)[C@H]2OC)cc1OC , reported T/C: 94 % of control

Memo: C=C(C)CON=C(c1ccccc1)c1ccccc1 , reported T/C: 98 % of control

Memo: CCCCOC(=O)/C=C(\Br)C(=O)OCCCC , reported T/C: 92 % of control

Memo: C/C=C/C(O)C1CCCCC1 (stereo not given) , reported T/C: 98 % of control

Memo: OC1CC2CC1C1C=CCC21 (stereo not given) , reported T/C: 98 % of control

Memo: O=C(CCl)C(c1ccc([N+](=O)[O-])cc1)c1ccc([N+](=O)[O-])cc1 , reported T/C: 98 % of control

Memo: COc1ccc(NC(=O)Nc2cc(C(F)(F)F)ccc2Cl)cc1 , reported T/C: 90 % of control

Memo: C=CCSc1cccc2ccccc12 , reported T/C: 90 % of control

Memo: CC(=O)OC1CCC2(C)C(=CCC3C2CCC2(C)C(C(C)CCC(=O)O)CCC32)C1 (stereo not given) , reported T/C: 95 % of control
